- System: Hodgkin's lymphoma cells (L540cy)
- test: In vitro potency, CellTiter-Glo growth inhibition, L540cy
- Type: cell-based
- condition-details: 96 h, read-out: IC50 L540cy
In plain terms, low IC50, meaning strictly below 0.006 µM, gives Y, and everything else gives N.

Worked set:
- compound: "CC[C@@]1(O)C(=O)OCc2c1cc1n(c2=O)Cc2c-1nc1cc3c(cc1c2CNC(=O)[C@@H](N)CCC(N)=O)OCO3 [Compound 3m]"
  classification: "N"
- compound: "CC[C@@]1(O)C(=O)OCc2c1cc1n(c2=O)Cc2c-1nc1cc3c(cc1c2CNC(=O)[C@@H](N)CC(=O)O)OCO3 [Compound 3j]"
  classification: "N"
- compound: "CC[C@@]1(O)C(=O)OCc2c1cc1n(c2=O)Cc2c-1nc1cc3c(cc1c2CNC(=O)[C@@H](N)CCSC)OCO3 [Compound 3e]"
  classification: "N"

# evaluate next
Please let me know if CC[C@@]1(O)C(=O)OCc2c1cc1n(c2=O)Cc2c-1nc1cc3c(cc1c2CNC(=O)C(C)(C)N)OCO3 [Compound 3d] shows IC50 below 0.006 µM. Y
